- Assay Info: physchem
- Type: physicochemical
- Condition Label: pH 7.4, LogD, pH 7.4, incubation 1
Attribute Measured: logD at 1 h

| Compound | Attribute Measured | Reading |
| --- | --- | --- |
| Cn1cc(C(=O)Nc2ccccc2-c2cc(F)c(F)c(F)c2)c(C(F)F)n1 [Fluxapyroxad, reference compound] | logD at 1 h | 3.53 |

A = O=C(N[C@@H]1[C@@H]2CC[C@@]1(c1ccc(Cl)cc1)C2)c1cccnc1Cl (relative stereo) [Compound 30]
B = O=C(O)c1ccccc1C(=O)Nc1ccc(S(=O)(=O)Nc2nccs2)cc1 [Phthalylsulfathiazole, reference compound]
Prompt line: Of the pair A and B , name the member with the lesser recorded logD at 1 h. Give the label under which the chosen entry appears.
Response line: B
(B: -0.68, A: 2.69)

A = O=C(N[C@@H]1[C@H]2C[C@]1(c1ccc(Cl)cc1)CO2)c1cccnc1Cl (relative stereo) [Compound 31]
B = O=C(O)C1C2CC1(C(=O)Nc1ccc(S(=O)(=O)Nc3nccs3)cc1)CO2 (stereo not drawn) [Compound 33]
Prompt line: Given the listed items, does A or B have the lesser reported logD at 1 h? When you have decided, please share the label of that item.
Response line: B
(B: -0.62, A: 3.48)
